Tested on: MALME-3M melanoma
Test: NCI-60 one-dose screen, 48 h (100 = growth as untreated, 0 = no growth, -100 = all killed)
Settings: 10 µM unless noted
Method: Cells are grown in 96 well plates and exposed to the test compound for 48 hours. Compounds are tested at a single concentration, which is 10^-5 M for most compounds. The reported endpoint is percent growth (GI% or GIPRCNT), where numbers from 0 - 100% represent growth inhibition, and numbers from -100% - 0 represent cell death. For example, a value of 40 represents 60% growth inhibition. A value of 0 means no net growth occurred over the course of the experiment. […]
Compounds without any hit were thinned out: in the full panel of roughly 83,000, 20% have a hit.
readout.type: growth (%)
Please give a number only; it is taken to be in %.

### Prompt Observed growth on MALME-3M melanoma for CCOC(=O)c1c2c(n(-c3ccc(C#N)cc3)c1-c1ccccc1)C=CCC2 , please.
### Response 103

More entries:
### Prompt Return growth measured with MALME-3M melanoma given this compound: CCOC(=O)C1=C(N)Oc2c(sc3c(C)cccc23)C1c1ccc(Cl)cc1 (centres undefined)
### Response 36.1

### Prompt What is its growth for MALME-3M melanoma? Entry: CCOC(=O)c1c(C)nc2c(c1N)CC(=O)N2Cc1ccc(F)cc1
### Response 116

### Prompt growth of COc1c(B(O)O)cc(F)cc1-c1nc2ccc3[nH]ncc3c2c2c1CCCC2 on MALME-3M melanoma?
### Response 20.3

### Prompt MALME-3M melanoma / growth / COc1ccc(-c2cc3c4c(nc5ccccc5c4c2)CC(c2cc(OC)c(OC)c(OC)c2)O3)cc1 (centres undefined) : value?
### Response 20.8

### Prompt Entry BrCCCc1n(Cc2ccc3ccccc3c2)c2ccccc2[n+]1Cc1ccc2ccccc2c1 , system MALME-3M melanoma: what growth was measured?
### Response -73.2

### Prompt # get_value(readout= growth, system= MALME-3M melanoma) for C=C1C(=O)O[C@H]2[C@H]1CC/C(COC(=O)C(C)c1ccc(CC(C)C)cc1)=C\CC[C@@]1(C)O[C@@H]21 (some centres undefined)
### Response -25.6

### Prompt Lab request: please report growth under test system MALME-3M melanoma for COC1=C(C)C(=O)c2c(c(CCCl)c3n2CCC3OC(C)=O)C1=O (centres undefined)
### Response -64.3

* * *

Tested on: NCI-H23 lung
Assay: NCI-60 one-dose screen, 48 h (100 = growth as untreated, 0 = no growth, -100 = all killed)
Details: 10 µM unless noted
The panel holds about 83,000 compounds, 20% with a hit somewhere; the sample as a whole holds those more often.
So basically: is growth under 90%? Then Fulfilled. Not under? Then Not fulfilled.

Worked examples, 5 compounds total:
### Prompt I'd appreciate it if you could check whether Cc1ccc(/C=C2\Oc3ccc(O)c(O)c3C2=O)cc1 has growth smaller than 90%.
### Response Fulfilled

### Prompt Below 90% on growth? Entry Cc1c(C(=O)N[C@@H](Cc2ccccc2)C(=O)C(=O)NCc2ccc(F)cc2)[nH]c2ccccc2c1=O
### Response Not fulfilled

### Prompt Check if growth falls below 90% for CCCCCCCCCCCCCCCCCC1OCC(COC(=O)O[C@]2(CC)C(=O)OCc3c2cc2n(c3=O)Cc3cc4ccccc4nc3-2)O1 (stereo partly drawn) .
### Response Fulfilled

### Prompt growth under 90%? Item: O=[N+]([O-])c1ccc(Cl)c(-c2cc(CCCCO)on2)c1
### Response Not fulfilled

### Prompt Strictly below 90%: is that where growth of CCOC(=O)c1cn2ncnc(Oc3ccc(NC(=O)NCCN4CCN(C)CC4)c(Cl)c3)c2c1C sits?
### Response Fulfilled

Continuing:
### Prompt Take the compound Oc1c(I)cc(I)cc1CNCCCN(Cc1ccccn1)Cc1ccccn1 and say whether its growth is less than 90%.
### Response Fulfilled

### Prompt Quick check: does Cc1ccc2nc(NC(=O)CSc3nc(Cl)c(C#N)c(-c4ccccc4)n3)sc2c1 have growth under 90%?
### Response Not fulfilled

### Prompt In the record for COc1cc(CCCO)c(OC)c(OC)c1OC , is growth less than 90%?
### Response Not fulfilled

### Prompt Check if growth falls below 90% for Cc1cccc2c(=O)c3c(sc12)c(NCc1ccccc1)nc1ccccc13 .
### Response Fulfilled

### Prompt # strict comparison: is reported growth < 90%? input = CCCCCCn1c(-c2ccc(C(=O)O/N=C(\N)c3ccc(OC)cc3)cc2)nc(-c2ccccc2)c1-c1ccccc1
### Response Fulfilled

* * *

System: SR leukemia
Experiment: NCI-60 one-dose screen, 48 h (100 = growth as untreated, 0 = no growth, -100 = all killed)
Details: 10 µM unless noted
About 83,000 compounds went through this panel and 20% of them were active in at least one assay; those are over-represented in the sample as a whole.
readout.type: growth (%)
# output: bare number, implied unit %

Worked examples follow.
### Prompt Value lookup for growth; key = O=C(O)c1cn(C2CC2)c2cc(N3CCN(C(=O)Nc4nc(-c5ccccc5)cs4)CC3)c(F)cc2c1=O
### Response 4.63

### Prompt Which growth is listed for COc1ccccc1/C=C1\Oc2cc(OCCN3CCC(Cc4ccccc4)CC3)ccc2C1=O ?
### Response 5.96

### Prompt Please report the recorded growth for CCN(CC)c1ccc(C2=NN(C(C)=O)C(c3cc(OC)c(OC)c(OC)c3)C2)cc1 (stereo unspecified) .
### Response -23.6

### Prompt Can you share its growth? I mean this compound: CCOC(=O)c1cn2ncnc(Oc3ccc(NC(=O)NCCN(CC)CC)c(Cl)c3)c2c1C
### Response -26.6

### Prompt Which growth reading was recorded for the compound COc1cccc2c(=O)c3c(sc12)c(N1CCNCC1)nc1ccccc13 ?
### Response -33.9

Next:
### Prompt If you can, please state the reported growth value of c1ccc(-c2nc3sc(-c4ccccc4)cn3n2)cc1 .
### Response 90.4

* * *

Tested on: M14 melanoma
Assay: NCI-60 one-dose screen, 48 h (100 = growth as untreated, 0 = no growth, -100 = all killed)
Conditions: 10 µM unless noted
This is part of a sample that, as a whole, favours compounds with a hit. Of some 83,000 tested, about 20% had one in any assay.
Please use true (1) for growth under 50% and false (0) for everything else, ties included.

### Prompt Lab note: confirm whether the reported growth for this compound is below 50%, equality not counting. compound: Cc1cc(=O)oc2cc(OC(=O)CN3CCN(C)CC3)ccc12
### Response false (0)

### Prompt Is growth of O=C(Nc1nc2ccc(F)cc2s1)c1cccnc1Nc1ccc(Cl)cc1Cl strictly below 50%?
### Response true (1)

### Prompt Take the compound O=C(O)C(c1ccccc1)N1C(=O)CSC1=S (centres undefined) and say whether its growth is less than 50%.
### Response false (0)

### Prompt Lab note: confirm whether the reported growth for this compound is below 50%, equality not counting. compound: O=C1NC(=O)C(c2ccccc2)(c2ccccc2)N1Cc1cn(-c2c3ccccc3nc3ccccc23)nn1
### Response false (0)

### Prompt Report whether reported growth is lower than 50% (strictly) for Cc1ccc2sc3c(NCCN)nc4ccccc4c3c(=O)c2c1
### Response false (0)

### Prompt Find out if reported growth for COc1ccc2sc3c(NCCCN(C)C)nc4ccccc4c3c(=O)c2c1 is less than 50%
### Response true (1)

### Prompt Please determine if N#CC1=C(N)Oc2c(sc3c(Br)cccc23)C1c1ccc([N+](=O)[O-])cc1 (centres undefined) is below 50% in terms of growth.
### Response true (1)

### Prompt In the record for O=c1c2cccc(Cl)c2sc2c(NCCCNCCO)nc3ccccc3c12 , is growth less than 50%?
### Response true (1)

### Prompt Does CN1C(=O)CNC(=O)[C@H](NC(=O)c2nc3ccccc3cc2O)CSSC[C@H]1C(=O)NCCCc1nc2ccccc2cc1O have growth strictly under 50%?
### Response true (1)

### Prompt State whether 50% exceeds growth recorded for O=C1/C(=C/c2ccccc2[N+](=O)[O-])Oc2ccc(O)c(O)c21 .
### Response false (0)

### Prompt Regarding COc1cc(/C=C2\C(=O)Nc3ccc(Br)cc32)cc(OC)c1OC , kindly confirm whether its growth is beneath 50%.
### Response false (0)

### Prompt Hello, is growth of the following compound strictly smaller than 50%? CCOC(=O)NCCc1ccccc1
### Response false (0)

### Prompt Identify whether the compound Cc1ccc2sc3c(NCCCN)nc4ccccc4c3c(=O)c2c1 records growth below 50%.
### Response true (1)

### Prompt Report whether reported growth is lower than 50% (strictly) for CCc1ccccc1-n1c(N)c(C#N)c(-c2ccc(Cl)cc2)c(C#N)c1=O
### Response false (0)

* * *

System: PC-3 prostate
Test: NCI-60 one-dose screen, 48 h
Settings: 10 µM unless noted
The panel holds about 83,000 compounds, 20% with a hit somewhere; the sample as a whole holds those more often. Activity calls are given as the source filed them. The calls were made as follows: active = growth percent below 10; inactive = the rest.
One label from this list, please: active, inactive

### Prompt For COc1cc(OCc2cccc(-c3ccc(C(O)c4nccs4)cc3)c2C)cc(OC)c1CNCCNC(C)=O (stereo unspecified) , which call appears in the assay record?
### Response inactive

More entries:
### Prompt Recorded test outcome, item CCOC(=O)C1=C(N)Oc2c(sc3c(C)cccc23)C1c1ccc(OC)cc1 (stereo unspecified)
### Response inactive

### Prompt Recorded test call requested for CC(C)OC(=O)Nc1ccc(-c2nc(-c3cccc(OCCN4CCOCC4)c3)c(-c3ccnc(Br)c3)[nH]2)cc1
### Response inactive

### Prompt What call does the record list for CCCCCCn1c(-c2ccc(C(=O)O/N=C(\N)c3ccc4c(c3)OCO4)cc2)nc(-c2ccccc2)c1-c1ccccc1 ?
### Response inactive

### Prompt Hi, sorry to bother you, what did the test record for COc1cc(C2CC(c3ccc(N(C)C)cc3)=NN2C(C)=O)cc(OC)c1OC (stereo unspecified) ?
### Response inactive

### Prompt Entry COc1ccc(-c2csc(NC(=O)N3CCN(c4cc5c(cc4F)c(=O)c(C(=O)O)cn5C4CC4)CC3)n2)cc1 : call = ?
### Response active

### Prompt GET /call?item= Cc1cc(=O)oc2cc(OC(=O)N3CCN(C)CC3)ccc12 returns the recorded outcome of this test.
### Response inactive

### Prompt Fill in: this test's call for C=C1CC[C@@]2(C#N)[C@H]3[C@H](CC[C@@H]2C)[C@@H](C)C[C@@H](CC(C)(C)C#N)[C@H]13 is ___
### Response inactive

### Prompt Assay outcome for CN(C)CCCNc1nc2ccccc2c2c(=O)c3cc(F)ccc3sc12 : what was it?
### Response inactive

### Prompt Check the results log: what was the call for C=C1C(=O)O[C@H]2[C@H]1CC/C(COC(=O)CCSSCCC(=O)OC/C1=C/CC[C@@]3(C)O[C@H]3[C@H]3OC(=O)C(=C)[C@@H]3CC1)=C\CC[C@@]1(C)O[C@@H]21 ?
### Response active

### Prompt Assay outcome for C#Cc1cccc(NC(=O)c2ccc(NC(=O)C=C)cc2)c1 : what was it?
### Response inactive
